Data provenance: PubChem BioAssay AID720650

- assay_overview: Biochemical counterscreen for C difficile toxins, absence of UDPG, inhibitor dose response (AID 720650)
- measurement_context: series mostly up to 19.5 µM
Calls of active or inactive are those of the source. How the calls were made is not given here.
Mark one answer only. Choices: true (1) = active, false (0) = inactive

Here's what some known entries look like.
compound=CCN(CC)CCCCN1c2ccccc2Sc2ccccc21 category="true (1)"
compound=COC(=O)Cc1ccc(NC(=S)NCc2ccc(OC)cc2)cc1 category="false (0)"
compound=CN1CCN(/N=C/c2c[nH]c3ccccc23)CC1 category="false (0)"
compound=COc1cc2c(cc1N)-c1ccc(N)cc1C2=O category="true (1)"
compound=CC(=O)Nc1ccc(NC(=O)CN2CCN(c3ccccn3)CC2)cc1 category="false (0)"

Ask | Hi, sorry to bother you, what did the test record for COc1ccc(/C=N/n2c(-c3cc(C)[nH]n3)n[nH]c2=S)cc1OC ?
Reply | false (0)

Ask | Hi, sorry to bother you, what did the test record for CC(=O)Nc1ccc(S(=O)(=O)Nc2nc3ccccc3nc2-n2ccc(=NC(=O)c3ccc(F)cc3)cc2)cc1 ?
Reply | false (0)

Ask | Hi, sorry to bother you, what did the test record for Cc1cc(C)c(C)c(S(=O)(=O)N2CCCCC2C(=O)O)c1C (stereo unspecified) ?
Reply | false (0)

Ask | Hi, sorry to bother you, what did the test record for COCC(=O)N1CC[C@@H]2[C@H]1c1cc(-c3ccc(F)cc3)ccc1N(C)[C@H]2CO ?
Reply | true (1)

Ask | Hi, sorry to bother you, what did the test record for CCCCc1[nH]c(=O)c(C#N)c2c1CCCC2 ?
Reply | false (0)

Ask | Hi, sorry to bother you, what did the test record for COc1ccc(CNC(=O)C2=CC(c3ccc(C)cc3)=NS(=O)(=O)N2C)cc1 ?
Reply | false (0)
